- Target or test system: TrkA (Homo sapiens)
- Construct: aa 441-796; His; purchased Invitrogen PV3144
- Sequence (P04629 441-796): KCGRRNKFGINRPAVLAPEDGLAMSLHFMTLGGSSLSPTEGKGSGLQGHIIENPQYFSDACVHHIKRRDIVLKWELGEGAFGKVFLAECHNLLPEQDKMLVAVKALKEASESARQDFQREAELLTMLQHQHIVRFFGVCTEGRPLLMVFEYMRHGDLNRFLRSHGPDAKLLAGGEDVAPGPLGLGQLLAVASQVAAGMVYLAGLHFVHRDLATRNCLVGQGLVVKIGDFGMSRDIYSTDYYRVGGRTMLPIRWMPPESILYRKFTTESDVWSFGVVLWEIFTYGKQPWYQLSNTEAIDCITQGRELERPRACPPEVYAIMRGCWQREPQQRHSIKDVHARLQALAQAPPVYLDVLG
- Protocol: Isolated TRK enzyme assay (HTRF KinEASE-TK kit), PV3144 TrkA enzyme assay
- Assay type: biochemical
- Measurement conditions: PV3144 TrkA enzyme assay, recombinant His-tagged cytoplasmic domain aa 441-796, 4 nM enzyme, 40 uM ATP; arithmetic mean where more than one reading; read-out: Trka enzyme (IC50)
Recorded endpoint: pIC50
Entry type: numeric. Quantity: pIC50, the -log10 of concentration in molar units.

I am curious: what pIC50 value has been reported for CC(C)(CO)n1cc(C(=O)c2cc(NC(=O)Cn3cc(C(F)(F)F)nn3)ccn2)c2cnc(N)nc21 ?
6.67

Record request: pIC50 value, item CC(C)n1cc(C(=O)c2cc(NC(=O)Cn3cc(C4CC4)nn3)ccn2)c2cncnc21
7.12

Please report the recorded pIC50 for CC(C)n1cc(C(=O)c2ccnc(NC(=O)Cc3ccc(Cl)cc3)c2)c2cncnc21 [Example 67] .
7.54

Given CC(CO)n1cc(C(=O)c2ccnc(NC(=O)Cc3ccc(C#N)cc3)c2)c2cncnc21 (racemic) [Example 32] , state its recorded pIC50.
7.00

Look up pIC50 for this molecule: CC(C)n1cc(C(=O)c2cc(NC(=O)Cc3ccc(F)cn3)ccn2)c2cnc(N)nc21
7.12

Could you tell me which pIC50 is on file for CC(C)(C)n1cc(C(=O)c2cc(NC(=O)Cn3cc(C4CC4)nn3)ccn2)c2cncnc21 ?
7.28

Which pIC50 value is on record for CC(C)n1cc(C(=O)c2cc(NC(=O)Cc3cccc(S(C)(=O)=O)c3)ccn2)c2cnc(N)nc21 ?
7.12

Data request, read-out pIC50, for Cc1cc(C(F)(F)F)nn1CC(=O)Nc1cc(C(=O)c2cn(C(C)C)c3nc(O)ncc23)ccn1
6.60

Consider the molecule shown here: CC(CO)(CO)n1cc(C(=O)c2cc(NC(=O)Cc3ccc(C(F)(F)F)cc3)ccn2)c2cncnc21 What is its recorded pIC50?
7.87

Given the molecule CC(C)n1cc(C(=O)c2ccnc(NC(=O)Cc3cccc(Cl)c3)c2)c2cncnc21 , what is its reported pIC50?
7.84

Looking for the measured pIC50 of Cc1cc(C)n(CC(=O)Nc2cc(C(=O)c3cn(CC4(O)CC4)c4ncncc34)ccn2)n1 , can you help?
6.21

What pIC50 value was documented for this molecule, CC(CO)(CO)n1cc(C(=O)c2cc(NC(=O)Cn3ccc(C(F)(F)F)n3)ccn2)c2cncnc21 ?
7.14

Form field: reported pIC50 of Cc1cc(C(F)(F)F)nn1CC(=O)Nc1ccnc(C(=O)c2cn([C@@H](C)CO)c3ncncc23)c1
6.92

Entry Cc1ccnn1CC(=O)Nc1cc(C(=O)c2cn(CCO)c3ncncc23)ccn1 has what pIC50?
5.76

Param item = CC(CO)(CO)n1cc(C(=O)c2cc(NC(=O)Cc3ccc(Cl)cc3)ccn2)c2cncnc21 ; retrieve measured pIC50.
7.02

Would you mind telling me what pIC50 value was observed for CC(C)n1cc(C(=O)c2cc(NC(=O)Cn3cc(C(F)(F)F)nn3)ccn2)c2cncnc21 ?
6.88

Requested field: pIC50. Item: CC(C)n1cc(C(=O)c2ccnc(NC(=O)Cc3ccccn3)c2)c2cncnc21
5.44

Requested field: pIC50. Item: CC(C)n1cc(C(=O)c2ccnc(NC(=O)Cn3cccn3)c2)c2cncnc21
5.87

Given CC(C)n1cc(C(=O)c2cc(NC(=O)Cc3ccc(Cl)cn3)ccn2)c2cnc(N)nc21 , state its recorded pIC50.
7.46

pIC50 lookup needed for CC(C)n1cc(C(=O)c2ccnc(NC(=O)Cc3ccc(OC(F)(F)F)cc3)c2)c2cncnc21 , thanks.
7.73

Need pIC50, item Cc1nccn1CC(=O)Nc1cc(C(=O)c2cn(C(C)C)c3ncncc23)ccn1
5.01

What value of pIC50 has been recorded for this entry: Cc1ccn(CC(=O)Nc2cc(C(=O)c3cn(CCO)c4ncncc34)ccn2)n1
5.91

What does the record list as pIC50 for CC(C)(CO)n1cc(C(=O)c2cc(NC(=O)Cc3ccc(C(F)(F)F)cc3)ccn2)c2cncnc21 ?
7.89

Given the entry CC(C)c1cn(CC(=O)Nc2cc(C(=O)c3cn(CCO)c4ncncc34)ccn2)nn1 , report its measured pIC50.
6.70

Would you kindly share the measured pIC50 for CC(C)n1cc(C(=O)c2cc(NC(=O)Cc3cccc(S(C)(=O)=O)c3)ccn2)c2cncnc21 ?
6.57

Returns the measured pIC50 for the input molecule. Input: Cc1cc(C(F)(F)F)nn1CC(=O)Nc1ccnc(C(=O)c2cn(C(C)C)c3ncncc23)c1
8.26

Request the reported pIC50 associated with CC(C)n1cc(C(=O)c2ccnc(NC(=O)Cc3ccc(Cl)cc3Cl)c2)c2cncnc21
7.81

Fill blank: measured pIC50 of the molecule CC(C)(C)n1cc(C(=O)c2cc(NC(=O)Cc3ccc(Cl)cc3)ccn2)c2cncnc21 is ____.
7.94

Please report the recorded pIC50 for Cc1ccn(CC(=O)Nc2cc(C(=O)c3cn(C(C)C)c4ncncc34)ccn2)n1 .
6.84

Form field: reported pIC50 of O=C(Cc1ccc(C(F)(F)F)c(F)c1)Nc1cc(C(=O)c2cn(CCO)c3ncncc23)ccn1
7.53

Endpoint output: pIC50 of CC(C)n1cc(C(=O)c2ccnc(NC(=O)Cc3ccc(OC4CC4)cc3)c2)c2cncnc21 . Value?
6.93

What value of pIC50 has been recorded for this entry: C[C@@H](CO)n1cc(C(=O)c2cc(NC(=O)Cc3ccc(Cl)cn3)ccn2)c2cncnc21
6.64

###

- Target or test system: TrkA (Homo sapiens)
- Construct: aa 441-796; His; purchased Invitrogen PV3144
- Protocol: Isolated TRK enzyme assay (HTRF KinEASE-TK kit), PV3144 TrkA enzyme assay
- Format: biochemical
- Measurement conditions: PV3144 TrkA enzyme assay, recombinant His-tagged cytoplasmic domain aa 441-796, 4 nM enzyme, 40 uM ATP; arithmetic mean where more than one reading; read-out: Trka enzyme (IC50)
pIC50: −log10 of the molar value.
Could you label it true if measured pIC50 is 7 or higher, and false otherwise?

Please check the record O=C(Cc1ccc(F)cc1F)Nc1cc(C(=O)c2cn(CCO)c3ncncc23)ccn1 and state if its pIC50 is at or above 7.
false

Reported pIC50 at or above 7? C[C@@H](CO)n1cc(C(=O)c2cc(NC(=O)Cc3cccc(C(F)(F)F)c3)ccn2)c2cncnc21
true

Exam item: decide whether the reported pIC50 for CC(C)n1cc(C(=O)c2ccnc(NC(=O)Cc3cccc(OC(F)(F)F)c3)c2)c2cncnc21 is at least 7.
true

Is the recorded value of pIC50 equal to or greater than 7 for this molecule? CC(C)c1ccnn1CC(=O)Nc1cc(C(=O)c2cn(C(C)C)c3ncncc23)ccn1
false

Record Cc1cc(C)n(CC(=O)Nc2cc(C(=O)c3cn(CC(C)(C)O)c4ncncc34)ccn2)n1 ; criterion: pIC50 no lower than 7. Met?
false

###

- Target or test system: TrkA (Homo sapiens)
- Construct: aa 441-796; His; purchased Invitrogen PV3144
- Protocol: Isolated TRK enzyme assay (HTRF KinEASE-TK kit), PV3144 TrkA enzyme assay
- Assay type: biochemical
- Measurement conditions: PV3144 TrkA enzyme assay, recombinant His-tagged cytoplasmic domain aa 441-796, 4 nM enzyme, 40 uM ATP; arithmetic mean where more than one reading; read-out: Trka enzyme (IC50)
Recorded endpoint: pIC50
In plain terms, pIC50 is the concentration in mol/L turned into minus its base-10 logarithm.

I'd like to know its pIC50. The molecule in question is CC(C)n1cc(C(=O)c2ccnc(NC(=O)Cc3ccc(F)cc3)c2)c2cncnc21
7.38

Given the entry CC1(n2cc(C(=O)c3cc(NC(=O)Cc4ccc(C(F)(F)F)cc4)ccn3)c3cncnc32)COC1 , report its measured pIC50.
7.14

Which measured pIC50 value corresponds to CC(CO)n1cc(C(=O)c2ccnc(NC(=O)Cc3ccc(C#N)cc3)c2)c2cncnc21 (single isomer, unassigned) [Example 34] ?
6.48

For the molecule shown here, CC(C)(C)n1cc(C(=O)c2cc(NC(=O)Cc3cccc(S(C)(=O)=O)c3)ccn2)c2cncnc21 , give the reported pIC50.
8.02

pIC50 lookup needed for O=C(Cc1ccc(OC(F)(F)F)cc1)Nc1cc(C(=O)c2cn(CCO)c3ncncc23)ccn1 , thanks.
6.95

Query (molecule): CC(C)n1cc(C(=O)c2ccnc(NC(=O)Cc3ccccc3OC(F)(F)F)c2)c2cncnc21 ; field requested: pIC50
7.15

Data request, read-out pIC50, for CC(C)n1cc(C(=O)c2ccnc(NC(=O)Cc3ccc(F)cn3)c2)c2cncnc21
7.24

Look up pIC50 for this molecule: C[C@@H](CO)n1cc(C(=O)c2cc(NC(=O)Cc3ccc(C#N)cc3)ccn2)c2cncnc21
7.02

Value lookup for pIC50; key = O=C(Cc1ccc(Cl)c(Cl)c1)Nc1ccnc(C(=O)c2cn(C(CO)CO)c3ncncc23)c1
6.37

Find the recorded pIC50 belonging to O=C(Cc1ccc(C(F)(F)F)cc1)Nc1cc(C(=O)c2cn(CCO)c3ncncc23)ccn1 and report it.
7.79

Reported pIC50 for C[C@H](CO)n1cc(C(=O)c2cc(NC(=O)Cc3ccc(F)cn3)ccn2)c2cncnc21 : what is it?
6.86

Suppose we examine the molecule Cc1cn(CC(=O)Nc2cc(C(=O)c3cn(C(C)C)c4ncncc34)ccn2)nn1 ; what pIC50 value has been reported?
6.48

Please give the measured pIC50 for this molecule: O=C(Cc1ccc(Cl)cn1)Nc1ccnc(C(=O)c2cn(C(CO)CO)c3ncncc23)c1
5.66

Returns the measured pIC50 for the input molecule. Input: CC(C)n1cc(C(=O)c2ccnc(NC(=O)Cc3ccc(Cl)cc3)c2)c2cnc(N)nc21
7.99

Looking for the measured pIC50 of CC(C)n1cc(C(=O)c2cc(NC(=O)Cn3cc(C(F)(F)F)nn3)ccn2)c2cnc(N)nc21 , can you help?
7.73

Can you look up the measured pIC50 of CC(C)n1cc(C(=O)c2cc(NC(=O)Cn3ccc(C4CC4)n3)ccn2)c2cncnc21 for me?
7.99
